target: CDK4 (Homo sapiens, UniProt P11802+Q16531); test: HiBiT detection of HiBiT-tagged CDK4 protein level in MCF7 cells, 16 hours (Table 8); type: cell-based; design: expressed in transfected cells; host or cells: MCF7; settings: 100 nM, MCF7 cells stably expressing HiBiT tagged target proteins, read-out: % CDK4 Relative Level (100 nM)
Sequence (P11802 whole entry): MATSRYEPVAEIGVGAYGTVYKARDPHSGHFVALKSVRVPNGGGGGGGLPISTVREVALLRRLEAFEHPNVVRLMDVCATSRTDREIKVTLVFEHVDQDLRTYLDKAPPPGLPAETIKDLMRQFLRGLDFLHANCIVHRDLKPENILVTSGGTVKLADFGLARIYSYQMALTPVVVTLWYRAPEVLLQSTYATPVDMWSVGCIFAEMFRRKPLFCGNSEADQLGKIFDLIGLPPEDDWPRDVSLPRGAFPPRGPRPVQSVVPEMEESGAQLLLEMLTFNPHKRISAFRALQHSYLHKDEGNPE
Sequence (P24385 whole entry partner): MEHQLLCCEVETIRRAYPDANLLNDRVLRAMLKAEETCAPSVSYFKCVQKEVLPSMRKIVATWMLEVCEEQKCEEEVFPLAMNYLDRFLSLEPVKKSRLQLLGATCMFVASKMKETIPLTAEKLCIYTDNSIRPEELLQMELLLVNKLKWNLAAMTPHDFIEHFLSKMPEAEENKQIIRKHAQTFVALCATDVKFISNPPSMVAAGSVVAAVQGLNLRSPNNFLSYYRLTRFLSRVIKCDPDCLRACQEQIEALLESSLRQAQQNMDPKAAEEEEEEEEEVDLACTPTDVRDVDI
Sequence (Q16531 2-1140 limits assumed): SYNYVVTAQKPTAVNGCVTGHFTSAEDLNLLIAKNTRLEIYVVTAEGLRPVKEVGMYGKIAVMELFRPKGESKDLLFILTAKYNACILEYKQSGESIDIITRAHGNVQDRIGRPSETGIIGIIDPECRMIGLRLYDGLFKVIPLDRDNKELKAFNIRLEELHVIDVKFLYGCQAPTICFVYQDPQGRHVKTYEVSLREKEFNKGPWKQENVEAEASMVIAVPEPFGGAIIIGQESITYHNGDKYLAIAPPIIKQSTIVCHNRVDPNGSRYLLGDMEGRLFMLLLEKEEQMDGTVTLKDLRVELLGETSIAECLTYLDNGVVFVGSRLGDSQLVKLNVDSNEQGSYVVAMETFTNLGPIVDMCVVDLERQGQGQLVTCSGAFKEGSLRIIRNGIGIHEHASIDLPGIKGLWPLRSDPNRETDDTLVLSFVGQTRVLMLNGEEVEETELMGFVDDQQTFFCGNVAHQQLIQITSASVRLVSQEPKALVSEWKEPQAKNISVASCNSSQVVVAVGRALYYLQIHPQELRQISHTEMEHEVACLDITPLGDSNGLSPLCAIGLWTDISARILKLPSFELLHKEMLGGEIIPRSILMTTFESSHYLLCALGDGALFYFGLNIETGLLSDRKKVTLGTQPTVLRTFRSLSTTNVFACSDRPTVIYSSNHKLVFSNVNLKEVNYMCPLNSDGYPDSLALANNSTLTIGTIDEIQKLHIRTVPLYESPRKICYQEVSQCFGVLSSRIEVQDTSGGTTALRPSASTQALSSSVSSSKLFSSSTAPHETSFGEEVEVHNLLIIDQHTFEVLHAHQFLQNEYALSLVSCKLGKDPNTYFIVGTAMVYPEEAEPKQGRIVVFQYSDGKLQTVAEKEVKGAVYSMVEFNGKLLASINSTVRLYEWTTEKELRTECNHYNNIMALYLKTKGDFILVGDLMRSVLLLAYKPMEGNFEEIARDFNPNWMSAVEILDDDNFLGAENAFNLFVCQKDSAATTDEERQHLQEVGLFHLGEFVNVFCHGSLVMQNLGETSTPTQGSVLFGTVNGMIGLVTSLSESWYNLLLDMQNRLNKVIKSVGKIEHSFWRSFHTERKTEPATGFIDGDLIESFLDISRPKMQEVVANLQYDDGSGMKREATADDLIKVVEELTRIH
Provide the recorded activity at 0.1 µM for the entries that follow.

So, CC(=O)c1c(C)c2cnc(Nc3ccc(N4CCC5(CCN(CC(=O)N6CC7(CC(Nc8nc(NC(C)C)ccc8C(=O)Nc8ccc(N(C)C)nn8)C7)C6)C5)C4)cn3)nc2n(C2CCCC2)c1=O (stereo not drawn) [CPD-448] ? Its activity at 0.1 µM was 55 to 85%

So, CNc1ccc(C(=O)Nc2ccc(N(C)C)nn2)c(NCCOCCC(=O)N2CCN(c3ccc(Nc4ncc5cc(C(=O)N(C)C)n(C6CCCC6)c5n4)nc3)CC2)n1 [CPD-622] ? Its activity at 0.1 µM was 55 to 85%

So, CNc1ccc(C(=O)Nc2ccc(N(C)C)nn2)c(NCCCCCCC(=O)N2CCN(Cc3ccc(Nc4ncc(F)c(-c5cc(F)c6nc(C)n(C(C)C)c6c5)n4)nc3)CC2)n1 [CPD-604] ? Its activity at 0.1 µM was > 85%

So, CNc1ccc(C(=O)Nc2ccc(N(C)C)nn2)c(NCCC(=O)N2CCN(Cc3ccc(Nc4ncc(F)c(-c5cc(F)c6nc(C)n(C(C)C)c6c5)n4)nc3)CC2)n1 [CPD-600] ? Its activity at 0.1 µM was 55 to 85%

So, CNc1ccc(C(=O)Nc2ccc(N(C)C)nn2)c(NCCCCC(=O)NC2CCC3(CC2)CC(Nc2ncc4ccc(=O)n(C5CCCC5)c4n2)C3)n1 (stereo not drawn) [CPD-675] ? Its activity at 0.1 µM was > 85%

So, CNc1ccc(C(=O)Nc2ccc(N(C)C)nn2)c(NCCCCCCCNC(=O)CN2CCN(Cc3ccc(Nc4ncc(F)c(-c5cc(F)c6nc(C)n(C(C)C)c6c5)n4)nc3)CC2)n1 [CPD-613] ? Its activity at 0.1 µM was > 85%

So, CC(C)Nc1ccc(C(=O)Nc2ccc(N(C)C)nn2)c(NC2CC3(C2)CN(C(=O)CN2CCN(Cc4ccc(Nc5ncc6cc(C(=O)N(C)C)n(C7CCCC7)c6n5)nc4)CC2)C3)n1 [CPD-563] ? Its activity at 0.1 µM was > 85%

So, [2H]C([2H])([2H])Nc1ccc(C(=O)Nc2ccc(N(C)C)nn2)c(NC2CC3(C2)CN(C(=O)C(C)N2CCN(Cc4ccc(Nc5ncc6c(C)c(C(C)=O)c(=O)n(C7CCCC7)c6n5)nc4)CC2)C3)n1 (stereo not drawn) [CPD-456] ? Its activity at 0.1 µM was 55 to 85%

So, CC(C)Nc1ccc(C(=O)Nc2ccc(N(C)C)nn2)c(NC2CC3(CC(NC(=O)CN4CCN(Cc5ccc(Nc6ncc7cc8n(c7n6)C6(CCCCC6)CNC8=O)nc5)CC4)C3)C2)n1 (stereo not drawn) [CPD-558] ? Its activity at 0.1 µM was > 85%

So, CNc1ccc(C(=O)Nc2ccc(N(C)C)nn2)c(NCCOCCOCCC(=O)N2CCN(c3ccc(Nc4ncc(F)c(-c5cc(F)c6nc(C)n(C(C)C)c6c5)n4)nc3)CC2)n1 [CPD-655] ? Its activity at 0.1 µM was > 85%

So, CCc1ccc(C(=O)Nc2ccc(N(C)C)nn2)c(NC2CC3(CC(NC(=O)CN4CCN(Cc5ccc(Nc6ncc7c(C)c(C(C)=O)c(=O)n(C8CCCC8)c7n6)nc5)CC4)C3)C2)n1 (stereo not drawn) [CPD-578] ? Its activity at 0.1 µM was 55 to 85%

So, CC(=O)c1c(C)c2cnc(Nc3ccc(CN4CCN(CC(=O)N(C)C5CC6(CC(Nc7nc(NC(C)C)ccc7C(=O)Nc7ccc(N(C)C)nn7)C6)C5)CC4)cn3)nc2n(C2CCCC2)c1=O (stereo not drawn) [CPD-594] ? Its activity at 0.1 µM was 55 to 85%
